Test: GSK inMac assay, host cell toxicity readout (LD MAC)
Format: cell-based, human
Conditions: human; footnote c; read-out: THP-1 Host Cell CC50
Protocol: The intramacrophage Leishmania donovani activity assay (LD AMMAC) at GlaxoSmithKline was performed as described. Given the literature precedents described above and the apparent narrow tolerance for R^3 substitutions observed in the primary screen compounds, a thorough and methodical assessment was undertaken of tolerated groups at the three points of diversity (R^1/R^2/R^3) for the core. […] In addition, compounds were assessed for toxicity against HepG2 cells (HEPG2 EC50). […]
measured_property: CC50 (µM)

- COc1ccc(N2C(=O)c3[nH]nc(-c4ccc5c(c4)CCC5)c3C2c2ccc(F)cc2)cc1 (centres unmarked): 7.9
- COc1ccc(N2C(=O)c3[nH]nc(CC(C)C)c3C2C2CCN(Cc3ccccc3)CC2)cc1 (centres unmarked): 20
- COc1ccc(N2C(=O)c3[nH]nc(CC(C)C)c3C2c2cnccc2Cl)cc1 (centres unmarked): 20
- COc1ccc(N2C(=O)c3[nH]nc(CC(C)C)c3C2c2ccccc2OC)cc1 (centres unmarked): 25.1
- COc1ccc(N2C(=O)c3[nH]nc(CC(C)C)c3C2c2ccc(F)c(C(F)(F)F)c2)cc1 (centres unmarked): 25.1
- COc1cccc(N2C(=O)c3[nH]nc(CC(C)C)c3C2c2ccc(F)cc2)c1 (centres unmarked): 31.6
- COc1ccc(N2C(=O)c3[nH]nc(CC(C)C)c3C2c2cccc(C(F)(F)F)c2)cn1 (centres unmarked): 20
- CC(C)Cc1n[nH]c2c1C(c1ccc(F)cc1)N(c1ccc(C#N)cc1)C2=O (centres unmarked): 25.1
- COc1ccc(N2C(=O)c3[nH]nc(CC(C)C)c3C2c2cccc(C(F)(F)F)c2)c(OC)c1 (centres unmarked): 20
- CC(C)Cc1n[nH]c2c1C(c1ccc(F)cc1)N(c1ccc(S(=O)(=O)N3CCCC3)cc1)C2=O (centres unmarked): 20
